# measurementProtocol: NCI Yeast Anticancer Drug Screen. Data for the cln2 rad14 strain (AID 165);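 note: 0% = growth equal to vehicle treated cultures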
# measurementContext: S. cerevisiae cln2 rad14 strain, at 50.0 µM, hits give high values
The panel holds about 79,000 compounds, 15% with a hit somewhere; the sample as a whole holds those more often. Calls of active or inactive are those of the source. Cut-off read from the data, not from the text of the source: active = growth inhibition above about 70%; inactive = the rest.
measuredAttribute: growth inhibition

compound	growth inhibition
O=c1ccn(/C=C\c2nc3ccccc3[nH]c2=O)c(=S)[nH]1	13.7% (inactive)
O=C(CCN1C(=O)c2ccccc2C1=O)c1cnc[nH]1	-4.5% (inactive)

GET /values?readout=growth inhibition&item= CCC1C(C)C=CN1c1nc(N)nc(NS(=O)(=O)c2cc(C)c(Cl)cc2S)n1 (centres undefined)
-1.9% (inactive)

Consider next the compound CN(C)CCN1CC2C3CCCCC3=C3CCCCC3C2C1 (centres undefined) in the same way.
-24.4% (inactive)

Similarly, CNC(=O)NC(C)(C)CCCCC(C)(C)NC(=O)NC ?
-16.9% (inactive)

Same question for Cc1ccc(NC(=O)CCC(=O)C(C#N)c2ccc(Cl)cc2)cc1C (centres undefined) please.
4.75% (inactive)

Next up: Nc1ccc(C(=O)NN2C(=O)C(Cl)C2c2ccccc2)cc1 (centres undefined)
-1.8% (inactive)

Attribution: PubChem BioAssay (NCI)
